// values below are reported pKi
- experimental-system: UniProt P21917
- Sequence (P21917 whole entry): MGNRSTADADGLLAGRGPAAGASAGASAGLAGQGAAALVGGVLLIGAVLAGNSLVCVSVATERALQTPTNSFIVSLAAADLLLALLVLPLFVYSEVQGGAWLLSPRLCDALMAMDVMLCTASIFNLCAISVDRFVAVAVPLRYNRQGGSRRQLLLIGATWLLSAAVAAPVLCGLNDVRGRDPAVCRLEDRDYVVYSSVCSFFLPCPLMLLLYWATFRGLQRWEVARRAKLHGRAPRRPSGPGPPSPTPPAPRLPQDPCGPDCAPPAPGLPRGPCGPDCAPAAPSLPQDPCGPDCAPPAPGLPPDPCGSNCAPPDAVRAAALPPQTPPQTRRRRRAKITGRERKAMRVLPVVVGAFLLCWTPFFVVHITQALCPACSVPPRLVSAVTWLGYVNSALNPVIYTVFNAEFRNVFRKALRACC
Lab note: report pKi as minus log10 of the concentration in molar units, number only.

The cases that follow already have their pKi on record.
- compound-structure: "N#Cc1ccc2[nH]c(CN3CCN(c4ccc(F)cc4)CC3)cc2c1"
  pKi: 9.00
- compound-structure: "N#Cc1ccc2[nH]cc(CN3CCN(c4ccc(Cl)c(Cl)c4)CC3)c2c1"
  pKi: 7.66
- compound-structure: "N#Cc1ccc2[nH]c(CN3CCN(c4ccccc4Cl)CC3)cc2c1"
  pKi: 8.85
- compound-structure: "N#Cc1ccc2[nH]c(CN3CCN(c4ccc(Cl)c(Cl)c4)CC3)cc2c1"
  pKi: 8.12
- compound-structure: "N#Cc1ccc2[nH]cc(CN3CCN(c4ccccc4Cl)CC3)c2c1"
  pKi: 7.77
- compound-structure: "N#Cc1ccc2[nH]c(CN3CCN(c4ccccc4)CC3)cc2c1"
  pKi: 9.28
- compound-structure: "N#Cc1ccc2[nH]cc(CN3CCN(c4ccc(F)cc4)CC3)c2c1"
  pKi: 6.96
- compound-structure: "N#Cc1ccc2cc(CN3CCN(c4ccccc4Cl)CC3)[nH]c2c1"
  pKi: 8.47
- compound-structure: "N#Cc1ccc2[nH]cc(CN3CCN(c4ccc(Cl)cc4)CC3)c2c1"
  pKi: 7.54
- compound-structure: "N#Cc1ccc2cc(CN3CCN(c4ccccc4)CC3)[nH]c2c1"
  pKi: 8.44

Input line: So what's the measured pKi for this one? `N#Cc1ccc2[nH]c(CN3CCN(c4ccc(Cl)cc4)CC3)cc2c1`
Output line: 8.68

###

- experimental-system: D(2) dopamine receptor (Homo sapiens)
- Sequence (P14416 whole entry): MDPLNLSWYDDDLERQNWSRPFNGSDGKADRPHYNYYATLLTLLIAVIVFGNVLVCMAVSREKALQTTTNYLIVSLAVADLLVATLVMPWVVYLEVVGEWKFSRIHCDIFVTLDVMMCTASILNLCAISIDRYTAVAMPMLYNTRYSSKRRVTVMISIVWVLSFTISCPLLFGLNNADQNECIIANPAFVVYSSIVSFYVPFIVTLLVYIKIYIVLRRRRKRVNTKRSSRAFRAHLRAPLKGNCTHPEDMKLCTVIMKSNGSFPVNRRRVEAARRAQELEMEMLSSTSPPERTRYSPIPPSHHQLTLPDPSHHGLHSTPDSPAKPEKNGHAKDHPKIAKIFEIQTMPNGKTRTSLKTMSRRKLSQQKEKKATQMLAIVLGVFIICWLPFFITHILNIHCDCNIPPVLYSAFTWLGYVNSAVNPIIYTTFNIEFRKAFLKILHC
- assay-text: Displacement of [3H]spiperone from human Dopamine receptor D2S expressed in CHO cells
- Assay type: cell-based
// classify(record): look up Ki in ranges lower segment: < 1000 nM; middle segment: ≥ 1000 nM and < 4000 nM; upper segment: ≥ 4000 nM

- compound-structure: "N#Cc1ccc2[nH]cc(CN3CCN(c4ccc(Cl)c(Cl)c4)CC3)c2c1"
  category-label: "lower segment"

Input line: Lab note: which band did `N#Cc1ccc2[nH]cc(CN3CCN(c4ccccc4)CC3)c2c1` land in?
Output line: middle segment

Input line: Lab note: which band did `N#Cc1ccc2[nH]c(CN3CCN(c4ccccc4Cl)CC3)cc2c1` land in?
Output line: lower segment

Input line: Lab note: which band did `N#Cc1ccc2cc(CN3CCN(c4ccccc4)CC3)[nH]c2c1` land in?
Output line: middle segment

Input line: Lab note: which band did `N#Cc1ccc2[nH]c(CN3CCN(c4ccc(Cl)c(Cl)c4)CC3)cc2c1` land in?
Output line: upper segment

Input line: Lab note: which band did `N#Cc1ccc2[nH]c(CN3CCN(c4ccccc4)CC3)cc2c1` land in?
Output line: lower segment

Input line: Lab note: which band did `N#Cc1ccc2[nH]c(CN3CCN(c4ccc(F)cc4)CC3)cc2c1` land in?
Output line: upper segment

Input line: Lab note: which band did `N#Cc1ccc2[nH]cc(CN3CCN(c4ccc(Cl)cc4)CC3)c2c1` land in?
Output line: middle segment

Input line: Lab note: which band did `N#Cc1ccc2[nH]cc(CN3CCN(c4ccccc4Cl)CC3)c2c1` land in?
Output line: lower segment

Input line: Lab note: which band did `N#Cc1ccc2[nH]c(CN3CCN(c4ccc(Cl)cc4)CC3)cc2c1` land in?
Output line: upper segment

Input line: Lab note: which band did `N#Cc1ccc2[nH]cc(CN3CCN(c4ccc(F)cc4)CC3)c2c1` land in?
Output line: middle segment

Input line: Lab note: which band did `N#Cc1ccc2cc(CN3CCN(c4ccc(Cl)c(Cl)c4)CC3)[nH]c2c1` land in?
Output line: middle segment
